Source listed as patent US20250388664A1.

Target: T1, truncated hTfR1 of SEQ ID NO:122 (human, UniProt P02786 122-760)
T1 construct: also called human TfR1; Human TfR1
T1 sequence (P02786 other isoform, or with tags, fused parts or gaps limits assumed): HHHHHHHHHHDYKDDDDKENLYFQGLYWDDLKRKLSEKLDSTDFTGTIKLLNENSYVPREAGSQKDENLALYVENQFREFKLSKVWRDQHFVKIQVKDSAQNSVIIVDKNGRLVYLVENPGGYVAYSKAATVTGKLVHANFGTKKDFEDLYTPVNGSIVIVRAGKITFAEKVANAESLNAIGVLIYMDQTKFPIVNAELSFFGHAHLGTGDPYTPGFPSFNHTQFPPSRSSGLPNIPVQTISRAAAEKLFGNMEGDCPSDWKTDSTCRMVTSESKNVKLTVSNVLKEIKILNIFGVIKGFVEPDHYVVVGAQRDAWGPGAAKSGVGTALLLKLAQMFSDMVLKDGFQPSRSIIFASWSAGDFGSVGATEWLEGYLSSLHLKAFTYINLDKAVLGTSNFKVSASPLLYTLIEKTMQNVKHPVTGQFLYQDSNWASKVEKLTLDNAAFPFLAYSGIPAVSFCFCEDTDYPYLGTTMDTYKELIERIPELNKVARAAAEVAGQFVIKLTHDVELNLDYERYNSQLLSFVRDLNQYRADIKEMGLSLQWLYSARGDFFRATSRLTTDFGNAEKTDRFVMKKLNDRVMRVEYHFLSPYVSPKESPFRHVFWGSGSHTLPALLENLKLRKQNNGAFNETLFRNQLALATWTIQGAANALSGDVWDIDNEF
Test: SPR, FLAG-captured TfR1, scFv injected, 1:1 fit
Protocol: The interaction was measured using the single cycle kinetics method with a contact time of 120 s at a flow rate of 30 μl/min followed by a dissociation time of 600 s. Regeneration of the surface between cycles was done by injecting 10 mM glycine-HCl, pH 1.7. The binding data was fitted to a 1:1 interaction model. The scFv variants were diluted in HBS-EP+ (Cytiva. #BR100669). Experiments were performed at 25° C.
For each record, write down the corresponding koff.

// query Query: koff; subject: h26D3 HC6 DS T91A (scFv, also called h26D3 DS T91A) scFv: HHHHHHGGGGSGGGGSGGGGSGGGGSDIQMTQSPSSVSASVGDRVTITCKSSQSLLYSTNQKNYLAWYQQKPGKAPKLLIYWASTRESGVPSRFSGSGSGTDFTLTISSLQPEDFATYYCQQYFIYPRTFGCGTKVEIKGGGGSGGGGSGGGGSGGGGSEVQLVQSGAEVKKPGSSVKVSCKASGYIFTDYNMDWVRQAPGQCLEWIGDINPDADTTSYNEKFKGRATLTVDKSTSTAYMELSSLRSEDAAVYYCARGGYSGSSYYHPMDYWGQGTLVTVSS
// result 0.00388 s⁻¹

// query Query: koff; subject: h26D3 HC6 DS V11R (scFv, also called h26D3 DS V11R) scFv: HHHHHHGGGGSGGGGSGGGGSGGGGSDIQMTQSPSSVSASVGDRVTITCKSSQSLLYSTNQKNYLAWYQQKPGKAPKLLIYWASTRESGVPSRFSGSGSGTDFTLTISSLQPEDFATYYCQQYFIYPRTFGCGTKVEIKGGGGSGGGGSGGGGSGGGGSEVQLVQSGAERKKPGSSVKVSCKASGYIFTDYNMDWVRQAPGQCLEWIGDINPDADTTSYNEKFKGRATLTVDKSTSTAYMELSSLRSEDTAVYYCARGGYSGSSYYHPMDYWGQGTLVTVSS
// result 0.00465 s⁻¹
